Source listed as patent US12673944B2.

// reported IC50 per item
Tested on: GM1 production in Jurkat cells
protocol notes: cells
Type: cell-based
run parameters: Homo sapiens, Jurkat, 72 h

molecule	IC50
CC1(C)COc2cc(-c3ccc4c(c3)OCCCO4)ccc2C1NC(=O)O[C@@H]1CN2CCC1CC2 (stereo partly shown)	0.03 nM
O=C(NC1CCOc2cc(-c3ccccc3C(F)(F)F)ccc21)O[C@@H]1CN2CCC1CC2 (stereo partly shown)	18.2 nM
CCOc1ccc(-c2ccc3c(c2)OCCC3(C)NC(=O)O[C@@H]2CN3CCC2CC3)cc1 (stereo partly shown)	2.6 nM
CC1(C)COc2cc(-c3ccc(-c4ccon4)cc3)ccc2C1NC(=O)O[C@@H]1CN2CCC1CC2 (stereo partly shown)	6.9 nM
CC1(C)COc2cc(-c3ccccn3)ccc2C1NC(=O)O[C@@H]1CN2CCC1CC2 (stereo partly shown)	26.9 nM
O=C(NC1CCOc2ccc(-c3ccccc3Cl)cc21)O[C@@H]1CN2CCC1CC2 (stereo partly shown)	141 nM
O=C(NC1CCOc2cc(-c3cc(F)c(F)cc3F)ccc21)O[C@@H]1CN2CCC1CC2 (stereo partly shown)	27.6 nM
CC1(C)COc2cc(/C=C/c3ccc(-c4ccccc4)cc3)ccc2C1NC(=O)O[C@@H]1CN2CCC1CC2 (stereo partly shown)	2 nM
CC1(C)COc2cc(/C=C/c3ccc(C(F)(F)F)cc3)ccc2C1NC(=O)O[C@@H]1CN2CCC1CC2 (stereo partly shown)	0.5 nM
Cc1ccc(-c2ccc3c(c2)OCC(C)(C)C3NC(=O)O[C@@H]2CN3CCC2CC3)cc1F (stereo partly shown)	1.3 nM
CC(C)Oc1ccc(-c2ccc3c(c2)OCC(C)(C)C3NC(=O)O[C@@H]2CN3CCC2CC3)cc1F (stereo partly shown)	2.6 nM
CC(C)c1cccc(-c2ccc3c(c2)OCCC3(C)NC(=O)O[C@@H]2CN3CCC2CC3)c1 (stereo partly shown)	0.9 nM
COCOc1ccccc1-c1ccc2c(c1)OCC(C)(C)C2NC(=O)O[C@@H]1CN2CCC1CC2 (stereo partly shown)	0.22 nM
N#Cc1cccc(-c2ccc3c(c2)OCCC3NC(=O)O[C@@H]2CN3CCC2CC3)c1 (stereo partly shown)	7.73 nM
O=C(NC1CCOc2cc(-c3ccc4c(c3)COC4)ccc21)O[C@@H]1CN2CCC1CC2 (stereo partly shown)	40.1 nM
O=C(NC1CCOc2cc(-c3ccc(C4CCOCC4)cc3)ccc21)O[C@@H]1CN2CCC1CC2 (stereo partly shown)	28.2 nM

----------
tested system: glucosylceramide synthase (GCS) (Homo sapiens, UniProt Q16739)
Construct: The obtained supernatant was used
Sequence (Q16739 1-394): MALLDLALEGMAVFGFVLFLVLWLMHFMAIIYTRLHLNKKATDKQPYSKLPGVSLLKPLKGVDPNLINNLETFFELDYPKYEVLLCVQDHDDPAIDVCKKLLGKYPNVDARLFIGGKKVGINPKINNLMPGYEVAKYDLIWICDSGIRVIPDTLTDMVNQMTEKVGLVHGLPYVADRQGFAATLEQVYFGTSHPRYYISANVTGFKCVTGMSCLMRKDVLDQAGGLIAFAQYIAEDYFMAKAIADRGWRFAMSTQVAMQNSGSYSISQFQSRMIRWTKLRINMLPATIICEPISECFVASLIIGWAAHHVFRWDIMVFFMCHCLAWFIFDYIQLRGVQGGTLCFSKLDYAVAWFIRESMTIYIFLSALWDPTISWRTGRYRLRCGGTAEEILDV
protocol notes: GCS enzyme inhibition assay (A549 cell lysate, NBD C6-ceramide, HPLC fluorescence)
run parameters: inhibitory activity against GCS, 37° C., 90 minutes
pIC50: −log10 of the molar value.
Given measured pIC50, output 1 (yes) if it is greater than or equal to 9 and 0 (no) if not.

compound	qualitative label
CC1(C)COc2cc(-c3cccc(F)c3)c(F)cc2C1NC(=O)O[C@@H]1CN2CCC1CC2 (stereo partly shown) [Example 330]	1 (yes)
CSc1cccc(-c2ccc3c(c2)C(NC(=O)O[C@@H]2CN4CCC2CC4)CCO3)c1 (stereo partly shown) [Example 98]	0 (no)
CCCCc1ccc(-c2cc3c(cc2F)C(NC(=O)O[C@@H]2CN4CCC2CC4)C(C)(C)CO3)cc1 (stereo partly shown) [Example 343]	1 (yes)
CC1(C)COc2cc(-c3ccc4c(c3)OC(F)(F)O4)ccc2C1NC(=O)O[C@@H]1CN2CCC1CC2 (stereo partly shown) [Example 149]	1 (yes)

----------
tested system: glucosylceramide synthase (GCS) (Homo sapiens)
Construct: The obtained supernatant was used
Sequence (Q16739 1-394): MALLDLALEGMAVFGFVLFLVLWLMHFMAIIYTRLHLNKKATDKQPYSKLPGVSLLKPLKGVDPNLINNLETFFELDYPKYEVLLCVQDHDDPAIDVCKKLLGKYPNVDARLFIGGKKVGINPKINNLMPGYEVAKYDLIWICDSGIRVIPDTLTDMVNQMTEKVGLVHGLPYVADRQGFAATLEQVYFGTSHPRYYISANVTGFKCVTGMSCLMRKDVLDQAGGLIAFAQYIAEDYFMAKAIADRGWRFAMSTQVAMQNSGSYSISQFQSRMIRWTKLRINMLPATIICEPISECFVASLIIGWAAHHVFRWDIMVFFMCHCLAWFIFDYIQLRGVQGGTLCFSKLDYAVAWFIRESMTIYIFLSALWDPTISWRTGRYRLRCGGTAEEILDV
protocol notes: GCS enzyme inhibition assay (A549 cell lysate, NBD C6-ceramide, HPLC fluorescence)
run parameters: inhibitory activity against GCS, 37° C., 90 minutes
Procedure: Ibiglustat, known as a GCS inhibitor, was used as a control. After the cells attached to the culture dish were washed with phosphate buffered saline (PBS), the cells were scraped off with a cell scraper and then centrifuged (4000 rpm, 3 min, 4° C.) to collect the cells in a 50 ml tube. […] The obtained supernatant was used for the quantitative analysis of proteins. The amount of proteins was measured using the BCA protein assay kit, using bovine serum albumin as a standard. […]
// returns 0.0 unless IC50 is strictly below 0.9 nM, in which case 1.0

molecule	qualitative label
CCc1cccc(-c2cc3c(cc2OC)C(NC(=O)O[C@@H]2CN4CCC2CC4)C(C)(C)CO3)c1 (stereo partly shown)	1.0
CC(C)(C)c1cccc(-c2ccc3c(c2)SCCC3NC(=O)O[C@@H]2CN3CCC2CC3)c1 (stereo partly shown)	0.0
O=C(NC1CCSc2cc(-c3cccc(F)c3)ccc21)O[C@@H]1CN2CCC1CC2 (stereo partly shown)	0.0
O=C(NC1CCOc2cc(-c3cc(F)c(F)cc3F)ccc21)O[C@@H]1CN2CCC1CC2 (stereo partly shown)	0.0
COCOc1cccc(-c2ccc3c(c2)SCCC3NC(=O)O[C@@H]2CN3CCC2CC3)c1 (stereo partly shown)	0.0
CCOc1ccc(-c2ccc3c(c2)OCC(C)(C)C3NC(=O)O[C@@H]2CN3CCC2CC3)cc1F (stereo partly shown)	1.0
CN1CCC(NC(=O)O[C@@H]2CN3CCC2CC3)c2ccc(-c3coc4ccccc34)cc21 (stereo partly shown)	0.0
O=C(NC1CCOc2cc(-c3ccccc3Cl)ccc21)O[C@@H]1CN2CCC1CC2 (stereo partly shown)	0.0
CC(C)Oc1ccc(-c2cc3c(cc2F)C(NC(=O)O[C@@H]2CN4CCC2CC4)C(C)(C)CO3)cc1Cl (stereo partly shown)	1.0
O=C(NC1CCOc2cc(-c3cccc4cn[nH]c34)ccc21)O[C@@H]1CN2CCC1CC2 (stereo partly shown)	0.0
CC(C)(C)OCc1ccc(-c2ccc3c(c2)OCC(C)(C)C3NC(=O)O[C@@H]2CN3CCC2CC3)cc1 (stereo partly shown)	1.0
CC1(C)COc2cc(-c3cccc(-c4ccccc4)c3)ccc2C1NC(=O)O[C@@H]1CN2CCC1CC2 (stereo partly shown)	1.0
CCOc1cccc(-c2ccc3c(c2)SCCC3NC(=O)O[C@@H]2CN3CCC2CC3)c1 (stereo partly shown)	0.0
COc1cncc(-c2ccc3c(c2)OCC(C)(C)C3NC(=O)O[C@@H]2CN3CCC2CC3)c1 (stereo partly shown)	0.0
COc1ncc(-c2ccc3c(c2)OCC(C)(C)C3NC(=O)O[C@@H]2CN3CCC2CC3)cc1C (stereo partly shown)	0.0
CC1(NC(=O)O[C@@H]2CN3CCC2CC3)CCOc2cc(-c3ccccc3C#N)ccc21 (stereo partly shown)	0.0
CSc1ccc(-c2ccc3c(c2)C(NC(=O)O[C@@H]2CN4CCC2CC4)CCO3)cc1 (stereo partly shown)	0.0
COc1cccc(-c2ccc3c(c2)OCCC3NC(=O)O[C@@H]2CN3CCC2CC3)c1Cl (stereo partly shown)	0.0
Cc1ccc(-c2ccc3c(c2)OCC(C)(C)C3NC(=O)O[C@@H]2CN3CCC2CC3)cc1 (stereo partly shown)	1.0
COc1cc2c(cc1-c1ccc(OC(C)C)nc1)OCC(C)(C)C2NC(=O)O[C@@H]1CN2CCC1CC2 (stereo partly shown)	1.0
COCCOc1cccc(-c2ccc3c(c2)OCCC3NC(=O)O[C@@H]2CN3CCC2CC3)c1 (stereo partly shown)	1.0
N#Cc1ccccc1-c1ccc2c(c1)OCCC2NC(=O)O[C@@H]1CN2CCC1CC2 (stereo partly shown)	0.0
O=C(NC1CCOc2cc(-c3ccc(C(F)(F)F)cc3)ccc21)O[C@@H]1CN2CCC1CC2 (stereo partly shown)	0.0
O=C(NC1CCOc2cc(-c3ccc(OCC4CC4)nc3)ccc21)O[C@@H]1CN2CCC1CC2 (stereo partly shown)	0.0
COCOc1cccc(-c2ccc3c(c2)OCCC3NC(=O)O[C@@H]2CN3CCC2CC3)c1 (stereo partly shown)	1.0
CCOc1c(C)cc(-c2ccc3c(c2)OCCC3(C)NC(=O)O[C@@H]2CN3CCC2CC3)cc1C (stereo partly shown)	0.0
CC(C)(C)c1ccc(-c2cc3c(cc2F)C(NC(=O)O[C@@H]2CN4CCC2CC4)C(C)(C)CO3)cc1 (stereo partly shown)	1.0
CC1(C)COc2cc(-c3ccc(-c4ccon4)cc3)ccc2C1NC(=O)O[C@@H]1CN2CCC1CC2 (stereo partly shown)	0.0
CC1(C)COc2cc(-c3ccc(Cl)cc3)ccc2C1NC(=O)O[C@@H]1CN2CCC1CC2 (stereo partly shown)	1.0
CC1(C)COc2cc(-c3cc(F)ccc3F)ccc2C1NC(=O)O[C@@H]1CN2CCC1CC2 (stereo partly shown)	1.0
CC1(C)COc2cc(-c3ccc(C#N)c(F)c3)ccc2C1NC(=O)O[C@@H]1CN2CCC1CC2 (stereo partly shown)	0.0
